Taken from the CheMixHub drug solubility set.

Assay: xn = mol fraction of the nth substance listed, in the solute-free solvent
Settings: 283.15 K; x2 = 0.3

molecule	solubility (g/100 g solution)
O=c1ccc2ccccc2o1 + CC(C)=O + O	12.2
CCOC(=O)C1=CC2(CC)CCCN3CCc4c(n1c1ccccc41)C32 (centres undefined) + CCO + O	0.0454
CC1(C)SC2C(NC(=O)C(NC(=O)N3CCNC3=O)c3ccccc3)C(=O)N2C1C(=O)O (centres undefined) + CO + CC(C)O	0.156
O=c1ccc2ccccc2o1 + CO + O	0.479

====

Assay: xn = mol fraction of the nth substance listed, in the solute-free solvent
Settings: 293.15 K; x2 = 0.7297
Measured solubility (g/100 g solution), listed per entry.

compound	solubility (g/100 g solution)
COC(=O)C1=C(C)NC(C)=C(C(=O)OCC(C)C)C1c1ccccc1[N+](=O)[O-] (centres undefined) + CCCO + O	4.38
CC(=O)Nc1ccc(OC(=O)c2ccccc2OC(C)=O)cc1 + CC(C)O + O	0.177
O=[N+]([O-])c1cc[nH]n1 + CCCO + O	3.53
CS(=O)(=O)c1ccc(C(O)C(CF)NC(=O)C(Cl)Cl)cc1 (centres undefined) + CC(C)O + O	0.697

====

Experiment: xn = mol fraction of the nth substance listed, in the solute-free solvent
Details: 303.15 K; x2 = 0.08908

compound	solubility (g/100 g solution)
O=[N+]([O-])c1cc[nH]n1 + CCO + O	0.718
CC(=O)Nc1ccc(OC(=O)c2ccccc2OC(C)=O)cc1 + CCO + O	0.0464
CS(=O)(=O)c1ccc(C(O)C(CF)NC(=O)C(Cl)Cl)cc1 (centres undefined) + CCO + O	0.841
COC(=O)C1=C(C)NC(C)=C(C(=O)OCC(C)C)C1c1ccccc1[N+](=O)[O-] (centres undefined) + CCO + O	1.2

====

Measured solubility (g/100 g solution), listed per entry.
Experiment: xn = mol fraction of the nth substance listed, in the solute-free solvent
Conditions: 308.15 K; x2 = 0.6101

compound	solubility (g/100 g solution)
CS(=O)(=O)c1ccc(C(O)C(CF)NC(=O)C(Cl)Cl)cc1 (centres undefined) + CCO + O	3.59
O=[N+]([O-])c1cc[nH]n1 + CCO + O	5.64
CC(=O)Nc1ccc(OC(=O)c2ccccc2OC(C)=O)cc1 + CCO + O	0.661
COC(=O)C1=C(C)NC(C)=C(C(=O)OCC(C)C)C1c1ccccc1[N+](=O)[O-] (centres undefined) + CCO + O	7.01

====

Test: xn = mol fraction of the nth substance listed, in the solute-free solvent
Settings: 303.15 K; x2 = 0.9
Measured solubility (g/100 g solution), listed per entry.
measure: solubility (g/100 g solution)

compound	reported_measurement
CC1(C)SC2C(NC(=O)C(NC(=O)N3CCNC3=O)c3ccccc3)C(=O)N2C1C(=O)O (stereo not drawn) + CCO + CC(C)O	1.35
CCCCN1CCCCC1C(=O)Nc1c(C)cccc1C.Cl.O (stereo not drawn) + CO + O	13
O=c1ccc2ccccc2o1 + CO + O	36.7
O=c1ccc2ccccc2o1 + CC(C)=O + O	59.8
O=c1[nH]cc(F)c(=O)[nH]1 + CO + C1CCOC1	1.05
CC1(C)SC2C(NC(=O)C(NC(=O)N3CCNC3=O)c3ccccc3)C(=O)N2C1C(=O)O (stereo not drawn) + CO + CC(C)O	0.722
CCOC(=O)C1=CC2(CC)CCCN3CCc4c(n1c1ccccc41)C32 (stereo not drawn) + CCO + O	0.951
CCCCN1CCCCC1C(=O)Nc1c(C)cccc1C.Cl.O (stereo not drawn) + CCO + O	5.57

====

Experiment: xn = mol fraction of the nth substance listed, in the solute-free solvent
Conditions: 318.15 K; x2 = 0.3103
Kind request: treat 6 as inclusive, so solubility (g/100 g solution) at 6 or higher is fulfilled, anything lower is not fulfilled.

compound	label
COC(=O)C1=C(C)NC(C)=C(C(=O)OCC(C)C)C1c1ccccc1[N+](=O)[O-] (stereo not given) + CCCO + O	fulfilled
O=[N+]([O-])c1cc[nH]n1 + CCCO + O	fulfilled
COC(=O)C1=C(C)NC(C)=C(C(=O)OCC(C)C)C1c1ccccc1[N+](=O)[O-] (stereo not given) + CC(C)O + O	fulfilled
CS(=O)(=O)c1ccc(C(O)C(CF)NC(=O)C(Cl)Cl)cc1 (stereo not given) + CC(C)O + O	not fulfilled
CC(=O)Nc1ccc(OC(=O)c2ccccc2OC(C)=O)cc1 + CC(C)O + O	not fulfilled

====

Measured solubility (g/100 g solution), listed per entry.
Experiment: xn = mol fraction of the nth substance listed, in the solute-free solvent
Settings: 283.15 K; x2 = 0.2068

molecule	solubility (g/100 g solution)
CC(=O)Nc1ccc(OC(=O)c2ccccc2OC(C)=O)cc1 + CCO + O	0.0513
COC(=O)C1=C(C)NC(C)=C(C(=O)OCC(C)C)C1c1ccccc1[N+](=O)[O-] (centres undefined) + CCO + O	1.53
O=[N+]([O-])c1cc[nH]n1 + CCO + O	0.482
CS(=O)(=O)c1ccc(C(O)C(CF)NC(=O)C(Cl)Cl)cc1 (centres undefined) + CCO + O	0.699

====

Assay: xn = mol fraction of the nth substance listed, in the solute-free solvent
Settings: 313.15 K; x2 = 0.3
Measured solubility (g/100 g solution), listed per entry.

compound	solubility (g/100 g solution)
O=c1ccc2ccccc2o1 + CO + O	12.8
CCCCN1CCCCC1C(=O)Nc1c(C)cccc1C.Cl.O (stereo not given) + CCO + O	7.36
CCCCN1CCCCC1C(=O)Nc1c(C)cccc1C.Cl.O (stereo not given) + CO + O	10.9
CC1(C)SC2C(NC(=O)C(NC(=O)N3CCNC3=O)c3ccccc3)C(=O)N2C1C(=O)O (stereo not given) + CO + CC(C)O	0.501
CCOC(=O)C1=CC2(CC)CCCN3CCc4c(n1c1ccccc41)C32 (stereo not given) + CCO + O	0.185

====

Assay: xn = mol fraction of the nth substance listed, in the solute-free solvent
Conditions: 308.15 K; x2 = 0.2
measure: solubility (g/100 g solution)

molecule	reported_measurement
O=C(CC(=O)c1ccccc1)c1ccccc1 + CC(C)O + O	0.338
O=C(CC(=O)c1ccccc1)c1ccccc1 + CCO + O	0.0946
CCCCN1CCCCC1C(=O)Nc1c(C)cccc1C.Cl.O (stereo not drawn) + CO + O	7.06
CCOC(=O)C1=CC2(CC)CCCN3CCc4c(n1c1ccccc41)C32 (stereo not drawn) + CCO + O	0.028
O=c1ccc2ccccc2o1 + CO + O	2.06
CC1(C)SC2C(NC(=O)C(NC(=O)N3CCNC3=O)c3ccccc3)C(=O)N2C1C(=O)O (stereo not drawn) + CCO + CC(C)O	0.294
CCCCN1CCCCC1C(=O)Nc1c(C)cccc1C.Cl.O (stereo not drawn) + CCO + O	4.84
O=C(CC(=O)c1ccccc1)c1ccccc1 + CO + O	0.0667

====

Measured solubility (g/100 g solution), listed per entry.
Experiment: xn = mol fraction of the nth substance listed, in the solute-free solvent
Conditions: 288.15 K; x2 = 0.4

compound	solubility (g/100 g solution)
O=C(CC(=O)c1ccccc1)c1ccccc1 + CC(C)O + O	0.459
CN1CCN(C(=O)OC2c3nccnc3C(=O)N2c2ccc(Cl)cn2)CC1 (stereo unspecified) + C1CCOC1 + O	0.79
O=c1ccc2ccccc2o1 + CO + O	1.99
CN1CCN(C(=O)OC2c3nccnc3C(=O)N2c2ccc(Cl)cn2)CC1 (stereo unspecified) + CCO + O	0.242
CN1CCN(C(=O)OC2c3nccnc3C(=O)N2c2ccc(Cl)cn2)CC1 (stereo unspecified) + CC#N + O	1.13
O=C(CC(=O)c1ccccc1)c1ccccc1 + CO + O	0.039
CN1CCN(C(=O)OC2c3nccnc3C(=O)N2c2ccc(Cl)cn2)CC1 (stereo unspecified) + CC(C)=O + O	0.322
O=c1ccc2ccccc2o1 + CC(C)=O + O	24.6
O=C(CC(=O)c1ccccc1)c1ccccc1 + CCO + O	0.754
CCOC(=O)C1=CC2(CC)CCCN3CCc4c(n1c1ccccc41)C32 (stereo unspecified) + CCO + O	0.138
CC1(C)SC2C(NC(=O)C(NC(=O)N3CCNC3=O)c3ccccc3)C(=O)N2C1C(=O)O (stereo unspecified) + CO + CC(C)O	0.202

====

Assay: xn = mol fraction of the nth substance listed, in the solute-free solvent
Conditions: 303.15 K; x2 = 0.1
Kind request: treat 3 as inclusive, so solubility (g/100 g solution) at 3 or higher is satisfied, anything lower is not satisfied.

compound	label
CCCCN1CCCCC1C(=O)Nc1c(C)cccc1C.Cl.O (stereo not given) + CO + O	satisfied
CCCCN1CCCCC1C(=O)Nc1c(C)cccc1C.Cl.O (stereo not given) + CCO + O	satisfied
CC1(C)SC2C(NC(=O)C(NC(=O)N3CCNC3=O)c3ccccc3)C(=O)N2C1C(=O)O (stereo not given) + CO + CC(C)O	not satisfied
O=c1ccc2ccccc2o1 + CO + O	not satisfied
